Documented AC50 across a set of molecules
Tested on: Hara (NRF2 pathway wild type cell line with low AKR1C3 expression)
procedure text: In vitro cell proliferation assay (CellTiter-Glo), Hara
Type: cell-based
settings: 72 h; Hara cells, 3 days, CellTiter-Glo, top concentration 10 μM; read-out: HARA Qualified absolute AC50

Please give the measured AC50 for this molecule: CC(O)c1cc(CNC(=O)N2CCC3(CC2)CC(=O)c2cc(F)ccc2N3C)ccc1F (stereo not shown) > 10 µM

Please answer likewise for "O=C1CC2(CCN(C(=O)NCc3cocn3)CC2)Nc2ccc(F)cc21" > 10 µM

// repeat for "O=C1CC2(CCN(C(=O)NCc3cccc(-n4cncn4)c3)CC2)Nc2c(F)cc(F)cc21" and report > 10 µM

Next, consider the following molecule.
What AC50 value was documented for this molecule, "NS(=O)(=O)Cc1cc(CNC(=O)N2CCC3(CC2)CC(=O)c2cc(F)ccc2N3)ccc1F" ? > 10 µM

Values compiled from patent US11970497B2.
